Values from patent US20250333497A1

MEASUREMENT_TARGET: T1, full length PLXDC1 (PLXDC1-Full) (Homo sapiens, UniProt Q8IUK5)
T1 construct: expressed in transfected cells
T1 sequence (Q8IUK5 19-500): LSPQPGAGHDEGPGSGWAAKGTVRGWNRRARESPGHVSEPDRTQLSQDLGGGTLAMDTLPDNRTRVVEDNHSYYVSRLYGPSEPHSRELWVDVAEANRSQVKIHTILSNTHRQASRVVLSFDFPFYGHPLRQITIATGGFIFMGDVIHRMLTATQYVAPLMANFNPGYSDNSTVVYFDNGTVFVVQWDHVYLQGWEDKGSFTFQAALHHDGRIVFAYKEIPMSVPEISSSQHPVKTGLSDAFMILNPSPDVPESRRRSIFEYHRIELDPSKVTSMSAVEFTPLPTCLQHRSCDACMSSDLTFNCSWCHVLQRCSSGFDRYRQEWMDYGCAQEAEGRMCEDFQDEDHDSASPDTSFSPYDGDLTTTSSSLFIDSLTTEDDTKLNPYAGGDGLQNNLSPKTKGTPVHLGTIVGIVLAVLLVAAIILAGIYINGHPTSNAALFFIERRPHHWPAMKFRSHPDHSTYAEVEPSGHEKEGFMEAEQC
EXPERIMENTAL_PROTOCOL: Domain A binding specificity: binding to full length PLXDC1 expressed in transfected cells
CONDITION_DESCRIPTION: antibodies of Table 3 tested for ability to bind Domain A

| MOLECULE | binding to PLXDC1 |
| --- | --- |
| A002: VH SEQ ID NO:82, VL SEQ ID NO:83; Domain A-binding PLXDC1-activating antibody (antibody, V domains shown) VH: EVQLLESGGGLVQPGGSLRLSCAASGFTFKNYAMSWVRQAPGKGLEWVSAISASGGYTYYADSVKGRFTISRDNSKNTLYLQMNSLRAEDTAVYYCARGRWGAFDYWGQGTLVTVSS VL: QSVLTQPPSVSGAPGQRVTISCTGSSSNIGSGYDVHWYQQLPGTAPKLLIYGNRNRPSGVPDRFSGSKSGTSASLAITGLQAEDEADYYCQSYDSSLKTWVFGGGTKLTVL | able to bind PLXDC1 |
| A006: VH SEQ ID NO:72, VL SEQ ID NO:73; Domain A-binding PLXDC1-activating antibody (antibody, V domains shown) VH: QVQLVQSGAEVKKPGSSVKVSCKASGGTFSTEYISWVRQAPGQGLEWMGRIIPVLGITNYAQKFQGRVTITADESTSTAYMELSSLRSEDTAVYYCARHLGPPYLVTYSHGFDVWGQGTLVTVSS VL: EIVMTQSPATLSVSPGERATLSCRASQSLGTNLAWYQQKPGQAPRLLIYGASTRATGIPARFSGSGSGTEFTLTISSLQSEDFAVYYCQQYYEAPPTFGQGTKVEIK | able to bind PLXDC1 |
